# ASSAY OVERVIEW: ChromLogD
# Type: physicochemical
MEASUREMENT LABEL: chromatographic logD
Could you keep your reply to the number by itself?

Reported chromatographic logD of "O=c1[nH]cccc1-c1nc2c(c(OCCc3c[nH]c4ccccc34)n1)OCCN2" : 2.39

* * *

# ASSAYED TARGET: CYP 2D6 (Homo sapiens)
# Sequence (P10635 whole entry): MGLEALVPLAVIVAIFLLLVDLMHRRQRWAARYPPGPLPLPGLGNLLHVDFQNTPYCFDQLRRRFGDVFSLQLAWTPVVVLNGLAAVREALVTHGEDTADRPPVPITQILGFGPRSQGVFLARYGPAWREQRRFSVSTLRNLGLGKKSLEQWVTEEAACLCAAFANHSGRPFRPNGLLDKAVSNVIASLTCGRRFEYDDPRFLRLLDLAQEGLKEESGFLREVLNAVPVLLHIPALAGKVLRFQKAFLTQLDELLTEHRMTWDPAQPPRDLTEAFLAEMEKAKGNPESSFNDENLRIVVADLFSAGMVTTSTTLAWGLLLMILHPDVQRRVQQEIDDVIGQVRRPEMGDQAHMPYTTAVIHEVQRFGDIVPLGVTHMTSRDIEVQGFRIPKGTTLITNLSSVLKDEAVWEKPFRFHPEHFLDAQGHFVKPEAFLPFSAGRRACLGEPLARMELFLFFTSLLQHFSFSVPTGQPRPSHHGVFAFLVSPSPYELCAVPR
MEASUREMENT LABEL: IC50

Reported IC50 of O=c1[nH]cccc1-c1nc2c(c(OCCc3c[nH]c4ccccc34)n1)OCCN2 [Example 25] : 50 µM

* * *

# ASSAYED TARGET: AhR (Homo sapiens)
# Sequence (P35869 11-848): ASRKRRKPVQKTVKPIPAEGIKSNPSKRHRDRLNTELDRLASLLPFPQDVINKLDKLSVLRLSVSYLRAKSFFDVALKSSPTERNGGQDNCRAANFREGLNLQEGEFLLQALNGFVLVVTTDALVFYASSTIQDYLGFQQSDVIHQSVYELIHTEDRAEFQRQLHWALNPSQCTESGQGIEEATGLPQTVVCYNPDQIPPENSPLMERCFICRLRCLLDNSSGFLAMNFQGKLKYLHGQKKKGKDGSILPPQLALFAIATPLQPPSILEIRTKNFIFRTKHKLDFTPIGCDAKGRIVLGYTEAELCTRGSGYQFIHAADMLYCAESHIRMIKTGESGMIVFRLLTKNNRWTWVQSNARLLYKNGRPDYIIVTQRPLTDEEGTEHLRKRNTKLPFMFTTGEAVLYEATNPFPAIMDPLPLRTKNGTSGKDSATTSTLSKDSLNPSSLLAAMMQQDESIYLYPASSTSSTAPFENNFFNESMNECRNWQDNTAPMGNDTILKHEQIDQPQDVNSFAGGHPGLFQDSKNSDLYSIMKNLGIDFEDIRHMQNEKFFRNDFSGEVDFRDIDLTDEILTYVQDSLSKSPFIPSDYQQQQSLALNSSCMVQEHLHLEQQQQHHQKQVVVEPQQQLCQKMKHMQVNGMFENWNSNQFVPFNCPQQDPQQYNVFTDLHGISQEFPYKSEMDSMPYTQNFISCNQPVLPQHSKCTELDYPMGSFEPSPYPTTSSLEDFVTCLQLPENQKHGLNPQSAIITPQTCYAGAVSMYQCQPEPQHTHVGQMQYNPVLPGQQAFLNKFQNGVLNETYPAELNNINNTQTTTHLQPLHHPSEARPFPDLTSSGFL
# ASSAY OVERVIEW: AhR antagonism in human PBMCs - inhibition of IL-22 release
# Type: cell-based
# Design: endogenous in cells
# CONDITION CONTEXT: human PBMCs activated with CD3/CD28 agonist mixture, 72 hrs, IL-22 ELISA; average; read-out: hPBMC Inhibition of CD3/CD28 induced IL-22 release: av. pIC50 (converted)
MEASUREMENT LABEL: log10 IC50 (log10 of the value in nM)
Short version: log10 scale, IC50, nM.

Please review the following examples before continuing.
COC[C@@H]1COc2c(NCCc3c[nH]c4ccccc34)nc(-c3cnc(C)s3)nc2N1 ... 0.51
CC1COc2c(NCCc3c[nH]c4ccccc34)nc(-c3cncc(F)c3)nc2N1 (centres unmarked) ... -0.02
Cc1ncc(-c2nc3c(c(NCCc4c[nH]c5ccccc45)n2)OCCN3)s1 ... 0.98
O=c1[nH]cccc1-c1nc2c(c(NCCc3c[nH]c4ccccc34)n1)OCCN2 ... 0.22
O=c1[nH]cc(F)cc1-c1nc2c(c(NCCc3c[nH]c4ccccc34)n1)OCCN2 ... -0.49
COC[C@@H]1COc2c(nc(-c3ccc[nH]c3=O)nc2OCCc2c[nH]c3ccccc23)N1 ... 0.21

Reported log10 IC50 of "C[C@H]1CNc2nc(-c3cncc(F)c3)nc(NCCc3c[nH]c4ccccc34)c2O1" : 0.48
